TESTED_ON: AVPR1B (Homo sapiens)
Construct: purchased Promega (in-house HiBiT-GPCR construct library, NanoBRET)
Sequence (P47901 whole entry): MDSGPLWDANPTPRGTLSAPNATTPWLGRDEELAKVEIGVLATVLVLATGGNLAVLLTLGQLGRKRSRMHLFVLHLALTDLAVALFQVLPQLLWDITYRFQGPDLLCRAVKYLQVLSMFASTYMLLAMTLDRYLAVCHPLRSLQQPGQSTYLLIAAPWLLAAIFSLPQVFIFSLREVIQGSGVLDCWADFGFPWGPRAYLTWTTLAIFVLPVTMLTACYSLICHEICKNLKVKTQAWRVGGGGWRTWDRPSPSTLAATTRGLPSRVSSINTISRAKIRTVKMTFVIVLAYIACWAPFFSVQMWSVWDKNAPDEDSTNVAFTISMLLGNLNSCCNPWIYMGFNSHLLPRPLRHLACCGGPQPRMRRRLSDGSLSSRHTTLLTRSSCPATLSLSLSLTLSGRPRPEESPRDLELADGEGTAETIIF
MEASUREMENT_DESCRIPTION: NanoBRET screen HiBiT-AVPR1B in HEK293
Format: binding
TEST_CONDITIONS: AVPR1B; tracer 1μM

COMPOUND	TESTED_ON	NanoBRET Fold Response
O=C(CCOCCOCCOCCOCCNC(=O)CCc1ccc2n1[B-](F)(F)[N+]1=C(c3ccc[nH]3)C=CC1=C2)NCCCN1CCN(C2=Nc3ccccc3Oc3ccc(Cl)cc32)CC1	AVPR1B (Homo sapiens)	0.96
N#CN=C(NCCCOc1cccc(CN2CCCCC2)c1)NCCNC(=O)CCOCCOCCOCCOCCNC(=O)CCc1ccc2n1[B-](F)(F)[N+]1=C(c3ccc[nH]3)C=CC1=C2	AVPR1B (Homo sapiens)	1.04
Cc1nc2n(c(=O)c1CCN1CCC(c3noc4cc(F)ccc34)CC1)CCCC2OC(=O)NCCOCCOCCOCCOCCNC(=O)CCc1ccc2n1[B-](F)(F)[N+]1=C(c3ccc[nH]3)C=CC1=C2 (centres unmarked)	AVPR1B (Homo sapiens)	0.98
CC(C)N(CC[C@H](c1ccccc1)c1cc(CCNC(=O)c2ccc(CNC(=O)CCc3ccc4n3[B-](F)(F)[N+]3=C(c5ccc[nH]5)C=CC3=C4)cc2)ccc1O)C(C)C	AVPR1B (Homo sapiens)	0.94
Cc1cc2c(s1)Nc1ccccc1N=C2N1CCN(CCCNC(=O)CCOCCOCCOCCOCCNC(=O)CCc2ccc3n2[B-](F)(F)[N+]2=C(c4ccc[nH]4)C=CC2=C3)CC1	AVPR1B (Homo sapiens)	1.17

###

TESTED_ON: PDGFRB (Homo sapiens, UniProt P09619)
Construct: purchased Promega (in-house HiBiT-GPCR construct library, NanoBRET)
Sequence (P09619 33-1106): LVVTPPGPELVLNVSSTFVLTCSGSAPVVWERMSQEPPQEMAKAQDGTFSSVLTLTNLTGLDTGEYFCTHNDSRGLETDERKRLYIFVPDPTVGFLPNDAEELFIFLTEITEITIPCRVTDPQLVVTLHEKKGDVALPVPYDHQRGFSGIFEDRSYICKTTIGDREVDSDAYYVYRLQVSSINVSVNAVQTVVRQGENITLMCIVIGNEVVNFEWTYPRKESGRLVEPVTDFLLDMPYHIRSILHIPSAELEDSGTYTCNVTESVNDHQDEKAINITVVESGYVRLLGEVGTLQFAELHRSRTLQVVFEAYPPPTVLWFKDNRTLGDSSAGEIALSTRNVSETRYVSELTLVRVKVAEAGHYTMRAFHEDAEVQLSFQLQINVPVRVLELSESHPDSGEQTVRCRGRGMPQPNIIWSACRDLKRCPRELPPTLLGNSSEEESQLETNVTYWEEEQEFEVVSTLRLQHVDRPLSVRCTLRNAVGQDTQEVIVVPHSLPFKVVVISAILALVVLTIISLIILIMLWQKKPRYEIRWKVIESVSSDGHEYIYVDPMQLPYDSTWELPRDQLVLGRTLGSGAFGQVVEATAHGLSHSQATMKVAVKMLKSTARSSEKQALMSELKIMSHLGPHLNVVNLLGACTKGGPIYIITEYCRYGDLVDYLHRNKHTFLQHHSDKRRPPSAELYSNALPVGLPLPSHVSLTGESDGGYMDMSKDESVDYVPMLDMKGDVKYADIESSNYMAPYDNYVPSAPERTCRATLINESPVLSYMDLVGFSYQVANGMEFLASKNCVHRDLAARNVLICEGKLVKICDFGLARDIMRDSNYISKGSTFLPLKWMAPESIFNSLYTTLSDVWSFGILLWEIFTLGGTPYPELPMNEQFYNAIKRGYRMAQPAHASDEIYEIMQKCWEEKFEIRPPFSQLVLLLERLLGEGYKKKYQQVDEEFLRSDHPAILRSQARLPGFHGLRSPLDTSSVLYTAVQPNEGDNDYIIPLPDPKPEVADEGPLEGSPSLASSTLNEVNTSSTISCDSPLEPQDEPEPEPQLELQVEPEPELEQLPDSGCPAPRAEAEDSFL
MEASUREMENT_DESCRIPTION: NanoBRET screen HiBiT-PDGFRB in HEK293
Assay type: binding
TEST_CONDITIONS: PDGFRB; tracer 0.1μM
Entries and their measured NanoBRET Fold Response follow.

MOLECULE	NanoBRET Fold Response
N#CN=C(NCCCOc1cccc(CN2CCCCC2)c1)NCCNC(=O)CCOCCOCCOCCOCCNC(=O)CCc1ccc2n1[B-](F)(F)[N+]1=C(c3ccc[nH]3)C=CC1=C2	0.90
Cc1cc2c(s1)Nc1ccccc1N=C2N1CCN(CCCNC(=O)CCOCCOCCOCCOCCNC(=O)CCc2ccc3n2[B-](F)(F)[N+]2=C(c4ccc[nH]4)C=CC2=C3)CC1	0.98
COc1ccccc1N1CCN(CCCCN2C(=O)c3ccc(CNC(=O)CCOCCOCCOCCOCCNC(=O)CCc4ccc5n4[B-](F)(F)[N+]4=C(c6ccc[nH]6)C=CC4=C5)cc3C2=O)CC1	0.99
O=C(CCOCCOCCOCCOCCNC(=O)CCc1ccc2n1[B-](F)(F)[N+]1=C(c3ccc[nH]3)C=CC1=C2)NCCCN1CCN(C2=Nc3ccccc3Oc3ccc(Cl)cc32)CC1	1.12
O=C(CCc1ccc2n1[B-](F)(F)[N+]1=C(c3ccc[nH]3)C=CC1=C2)NCc1ccc(C(=O)NCCOCCC(=O)N[C@@H]2CC[C@@]3(O)[C@H]4Cc5ccc(O)c6c5[C@@]3(CCN4CC3CC3)[C@H]2O6)cc1 [Naltrexone-3-NB590]	0.24
COc1ccccc1N1CCN(CCCCN2C(=O)c3ccc(CNC(=O)CCOCCNC(=O)c4ccc(CNC(=O)CCc5ccc6n5[B-](F)(F)[N+]5=C(c7ccc[nH]7)C=CC5=C6)cc4)cc3C2=O)CC1	0.93
O=C(CCc1ccc2n1[B-](F)(F)[N+]1=C(c3ccc[nH]3)C=CC1=C2)NCCOCCOCCNC(=O)OCCOCCN1CCN(C2=Nc3ccccc3Sc3ccccc32)CC1	1.13
CC(C)N(CC[C@H](c1ccccc1)c1cc(CCNC(=O)c2ccc(CNC(=O)CCc3ccc4n3[B-](F)(F)[N+]3=C(c5ccc[nH]5)C=CC3=C4)cc2)ccc1O)C(C)C	1.14
CCCn1c(=O)c2[nH]c(-c3ccc(OCC(=O)NCCNC(=O)CCOCCNC(=O)c4ccc(CNC(=O)CCc5ccc6n5[B-](F)(F)[N+]5=C(c7ccc[nH]7)C=CC5=C6)cc4)cc3)nc2n(CCC)c1=O	0.76
Cc1nc2n(c(=O)c1CCN1CCC(c3noc4cc(F)ccc34)CC1)CCCC2OC(=O)NCCOCCOCCOCCOCCNC(=O)CCc1ccc2n1[B-](F)(F)[N+]1=C(c3ccc[nH]3)C=CC1=C2 (centres unmarked)	1.09
CC(C)N(CC[C@H](c1ccccc1)c1cc(CCNC(=O)CCOCCOCCOCCOCCNC(=O)CCc2ccc3n2[B-](F)(F)[N+]2=C(c4ccc[nH]4)C=CC2=C3)ccc1O)C(C)C	1.22
